Target: HIV-1 protease (Human immunodeficiency virus type 1 group M subtype B, UniProt P04585)
Construct: The protease (or proteinase), consisting of only 99 amino acids, is among the smallest enzymes known
Test: In vitro HIV protease inhibitory assay (HIV Protease FITC Assay)
Format: biochemical
Details: HIV-1 Dose 1.100 uM; read-out: HIV-1 Protease % Inhib
inhibition at 1.1 µM reference
Reply with just the number (in %).

[
  {
    "compound": "Cc1ccc(S(=O)(=O)Nc2cccc(C(c3c(O)cc(C(CC4CC4)CC4CCCOC4)oc3=O)C3CC3)c2)cc1 (centres unmarked) [Example 245]",
    "property.measured": "inhibition at 1.1 µM",
    "measurement.unit": "%",
    "val": 83.3
  }
]

Reported inhibition at 1.1 µM of CCC(Cc1ccccc1)c1cc(O)c(C(c2cccc(NS(=O)(=O)c3cc(Cl)ccc3Cl)c2)C2CC2)c(=O)o1 (centres unmarked) [Example 182] : 45.7

Reported inhibition at 1.1 µM of CCC(Cc1ccncc1)c1cc(O)c(C(c2ccccc2)C2CC2)c(=O)o1 (centres unmarked) [Example 68] : 47.7

Reported inhibition at 1.1 µM of CCC(C1=C(O)CC(CCc2ccccc2)(CC(C)C)OC1=O)c1ccccc1 (centres unmarked) [Example 234] : 61.6

Reported inhibition at 1.1 µM of CCC(Cc1cccc(OC)c1)c1cc(O)c(C(c2ccccc2)C2CC2)c(=O)o1 (centres unmarked) [Example 164] : 50

Reported inhibition at 1.1 µM of C=CC(C1=C(O)CC2(CCCCCC2)OC1=O)c1ccccc1 (centres unmarked) [Example 127] : 38.4

Reported inhibition at 1.1 µM of CCC(CCC(F)(F)F)c1cc(O)c(C(c2ccccc2)C2CC2)c(=O)o1 (centres unmarked) [Example 136] : 62.4

Reported inhibition at 1.1 µM of O=c1oc(CCc2ccc(F)cc2)cc(O)c1C(c1ccccc1)C1CC1 (centres unmarked) [Example 165] : 32.9

Numbers sourced from patent EP1203770A1.
